FYI, the data here is from patent US20190040102A1.

Biological target: somatostatin receptor type 2 (SSTR2) (UniProt P30874 1-369)
Sequence (P30874 whole entry): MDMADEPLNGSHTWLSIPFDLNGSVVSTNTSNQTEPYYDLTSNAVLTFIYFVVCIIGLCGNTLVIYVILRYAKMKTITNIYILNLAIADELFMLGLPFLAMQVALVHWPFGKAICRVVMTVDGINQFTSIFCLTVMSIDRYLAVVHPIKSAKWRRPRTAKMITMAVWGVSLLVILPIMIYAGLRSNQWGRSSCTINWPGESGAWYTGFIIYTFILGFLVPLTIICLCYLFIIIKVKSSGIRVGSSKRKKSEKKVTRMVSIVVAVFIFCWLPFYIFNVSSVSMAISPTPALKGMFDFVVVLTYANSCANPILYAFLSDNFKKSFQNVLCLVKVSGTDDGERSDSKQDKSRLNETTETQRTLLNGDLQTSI
Assay: cell-based or functional assay
Positions of bridges follow the written chain, without caps; N, C: chain ends. Non-standard residues stand in square brackets, D forms with d. dPhe(4-CONH2) = NC(=O)c1ccc(C[C@@H](N)C(=O)O)cc1; Phe(4-Cl) = N[C@@H](Cc1ccc(Cl)cc1)C(=O)O; dNMeC = CN[C@H](CS)C(=O)O
Documented IC50 (PathHunter β-Arrestin, antagonist mode) across a set of binders
Answer shape: numeric part, then the unit.

[[record]]
binder = "H-[Phe(4-Cl)][dNMeC]Y[dPhe(4-CONH2)]KTC[dY]-NH2 (disulfide 2-7; SMILES C[C@@H](O)[C@@H]1NC(=O)[C@H](CCCCN)NC(=O)[C@@H](Cc2ccc(C(N)=O)cc2)NC(=O)[C@H](Cc2ccc(O)cc2)NC(=O)[C@H](N(C)C(=O)[C@@H](N)Cc2ccc(Cl)cc2)CSSC[C@@H](C(=O)N[C@H](Cc2ccc(O)cc2)C(N)=O)NC1=O) [Compound 78: H-Cpa-[NMeDCys-Tyr-DPhe(4-carbamoyl)-Lys-Thr-Cys]-DTyr-NH2]"
readout_value = "6.79 nM"


Qu. Using the record for XXYXKVCX (HELM PEPTIDE1{[N[C@@H](Cc1ccc(Cl)cc1)C(=O)[*:2]].[dC].Y.[NC(=O)c1ccc(C[C@@H](N[*:1])C(=O)[*:2])cc1].K.V.C.[dY].[am]}$PEPTIDE1,PEPTIDE1,2:R3-7:R3$$$V2.0; SMILES CC(C)[C@@H]1NC(=O)[C@H](CCCCN)NC(=O)[C@@H](Cc2ccc(C(N)=O)cc2)NC(=O)[C@H](Cc2ccc(O)cc2)NC(=O)[C@H](NC(=O)[C@@H](N)Cc2ccc(Cl)cc2)CSSC[C@@H](C(=O)N[C@H](Cc2ccc(O)cc2)C(N)=O)NC1=O) [Compound 33: H-Cpa-cyclo[DCys-Tyr-D-4-(carbamoyl)Phe-Lys-Val-Cys]-DTyr-NH2] , report its IC50 (PathHunter β-Arrestin, antagonist mode).
Ans. 56 nM

Qu. Using the record for {CH3O2C(CH2)2(CO)}-[Phe(4-Cl)][dC]Y[dPhe(4-CONH2)]K(Me)TC[dY]-NH2 (disulfide 2-7) [Compound 58: CH3O2C(CH2)2(CO)-Cpa-cyclo[D-Cys-Tyr-D-Phe(4-carbamoyl)-Lys(Nε-Me)-Thr-Cys]-D-Tyr-NH2] , report its IC50 (PathHunter β-Arrestin, antagonist mode).
Ans. 2.36 nM
